I'd appreciate it if you could supply TGI values for the items below.
test system: UACC-62 melanoma; assay: NCI tumour cell line growth inhibition, 48 h

molecule="COc1cc(F)ccc1-c1cc(Nc2cc(CS(C)(=N)=O)ccn2)ncc1F (stereo not given)" value_observed="0.342 µM"
molecule=N=c1ccc2nc3ccc(N)cc3sc-2c1 value_observed="8.38 µM"
molecule="COC(=O)C(C(=O)C(=O)Nc1ccc(C)cc1C)c1csc(-n2nc(-c3ccccc3)cc2-c2ccccc2)n1 (stereo not given)" value_observed="> 100 µM"
molecule=c1ccc2c(c1)c1ccccc1n2Cn1c2ccccc2c2ccccc21 value_observed="> 100 µM"

Next item in the queue.
Identify the reported TGI for the following entry. CSc1ncnc2c1ncn2CC(=O)C1CCC2C3CCC4=CC(=O)CCC4(C)C3CCC12C (stereo not given)
14 µM

---

system: HCT-116 colon; experiment: NCI tumour cell line growth inhibition, 48 h
Measure Name: TGI

molecule=ClCc1cccc(Cn2cnc3c(Cl)nc(Cl)nc32)c1 measure_name=TGI value_observed="3.12 µM"
molecule=COc1ccc(-c2c(-c3ccccc3)c(C)c3ccccn23)cc1 measure_name=TGI value_observed="> 100 µM"
molecule=COc1cc(/C=C2\C[C@H]3[C@@H]4CCC5=CC(=O)CC[C@]5(C)[C@H]4CC[C@]3(C)C2=O)cc(OC)c1OC measure_name=TGI value_observed="> 40.8 µM"
molecule=CCCCc1ccc(-n2sc3ncc(-c4ccccc4)cc3c2=O)cc1 measure_name=TGI value_observed="> 100 µM"
molecule=O=C(N=Nc1ccc(Cl)cc1Cl)NNc1ccc(Cl)cc1Cl measure_name=TGI value_observed="28.7 µM"

Batch lookup, TGI per entry.
1. CC(=O)C(C)C(=O)N1C(=O)N(C)C2(C)N(C)C(=O)NC12C (stereo not drawn)
2. FC(F)(F)c1ccc(-c2nn3ncccc3c2-c2ccnc(Nc3ccc4c(c3)OCCO4)n2)cc1
3. Cc1ccc(/C=C2\NC(=S)NC2=O)cc1
4. COC(=O)C1Cc2c(OC)ccc(OC)c2C(O)C1C(=O)OC (stereo not drawn)
5. CCc1ccc2[nH]c(O)c(C3=Nc4ccccc4C3=O)c2c1

> 100 µM
> 25 µM
> 100 µM
> 100 µM
35.4 µM

---

Please provide measured TGI for the entries that follow.
system: MDA-MB-231 breast; test: NCI tumour cell line growth inhibition, 48 h

compound="Nc1nccc(NCC2(CO)CC(OCc3ccccc3)C2)n1 (stereo unspecified)" target_or_system="MDA-MB-231 breast" measure_name=TGI value_observed="> 100 µM"
compound="CSc1ncnc2c1ncn2CC(=O)C1CCC2C3CCC4=CC(=O)CCC4(C)C3CCC12C (stereo unspecified)" target_or_system="MDA-MB-231 breast" measure_name=TGI value_observed="27.7 µM"
compound=Cn1c(=Nc2ccc(Cl)cc2)sc2ccccc21 target_or_system="MDA-MB-231 breast" measure_name=TGI value_observed="> 100 µM"
compound=CCN1[C@@H](C(=O)NC23CCC(C(=O)O)(CC2)CC3)[C@H](c2cccc(Cl)c2F)[C@]2(C(=O)Nc3cc(Cl)ccc32)C12CCCCC2 target_or_system="MDA-MB-231 breast" measure_name=TGI value_observed="27.4 µM"
compound=COc1ccc(/C=C2\C[C@H]3[C@@H]4CCC5=C/C(=N/O)CC[C@]5(C)[C@H]4CC[C@]3(C)\C2=N\O)cc1 target_or_system="MDA-MB-231 breast" measure_name=TGI value_observed="> 100 µM"
compound=CN=C(Nc1ccc(OC)c2ccccc12)SC target_or_system="MDA-MB-231 breast" measure_name=TGI value_observed="> 10 µM"

Need TGI for each of these compounds.
1. CO/N=C\c1ccc2c(c1)Sc1ccccc1O2
2. O=c1[nH]nc(Cc2ccccc2)n1/N=C/c1ccco1
3. Cc1ccc2nc3n[nH]c(N)c3nc2c1
4. c1ccc2cc3c(NC4=NCCO4)cccc3cc2c1

1. > 100 µM
2. > 100 µM
3. > 100 µM
4. > 100 µM

Supply TGI value. Item: CC(C)(C)C(=O)Oc1ccc(/C=C/C(=O)c2ccc(OC(=O)C(C)(C)C)cc2)cc1
> 100 µM
